Test system: K-562 leukemia
Assay: NCI tumour cell line growth inhibition, 48 h
TGI listing for selected molecules.

Some solved entries appear below for comparison.
CCOC(=O)Nc1nc2ccc(OCC)cc2s1 : > 100 µM
Nc1ccccc1-c1noc(=O)[nH]1 : > 100 µM
COc1cc2c(c(OC)c1O)C(=O)C(OC)C(c1ccc(O)c(O)c1)O2 (stereo unspecified) : > 100 µM

Returns the measured TGI for the input molecule. Input: CCOc1ccccc1-n1c(CN2CCN(C(=O)COc3ccc(CNCCCCCCN4C5CCCC4CC(OC(=O)Nc4cc(C)ccc4OC)C5)cc3)CC2)nc2ccccc2c1=O (stereo unspecified)
1.36 µM

Returns the measured TGI for the input molecule. Input: `O=C(Nc1ccc(F)cc1F)c1cc(I)ccc1O`
> 100 µM

Returns the measured TGI for the input molecule. Input: `Cc1cc2nc(C(Cl)Cl)nc(-c3ccc(Cl)cc3)n2n1`
> 28.5 µM

Returns the measured TGI for the input molecule. Input: `CCCCCCCCSC1=CC(=O)c2nc3ccccc3c3ccnc1c23`
> 100 µM

Returns the measured TGI for the input molecule. Input: `O=C(CN1CCN(c2cc3c(cc2F)c(=O)c(C(=O)N/N=C/c2ccccc2O)cn3C2CC2)CC1)N/N=C\c1ccccc1O`
> 100 µM

Returns the measured TGI for the input molecule. Input: `COc1ccc(NC(=O)c2cc(OC)cc(OC)c2)cc1`
> 100 µM

Returns the measured TGI for the input molecule. Input: `CN(C)CCNc1ccc([N+](=O)[O-])c2sc3ccccc3c(=O)c12`
> 100 µM

Returns the measured TGI for the input molecule. Input: O=C(O)CCC(NC(=O)c1ccc(OCc2nc3cc(C(F)(F)F)ccc3nc2-c2ccccc2)cc1)C(=O)O (stereo unspecified)
> 100 µM

Returns the measured TGI for the input molecule. Input: `S=C1NCCN1`
> 100 µM

* * *

TGI listing for selected compounds.
Tested on: DMS 273 small cell lung
Assay: NCI tumour cell line growth inhibition, 48 h

O=C1N(Cl)C(=O)C(c2ccc(Cl)cc2)(c2ccc(Cl)cc2)N1Cl : > 100 µM
CC1(C)OC(=O)C(=Cc2ccc(O)cc2)C(=O)O1 : > 100 µM

Returns the measured TGI for the input compound. Input: `COc1cccc(NC(=O)CC(=O)n2nc(C)c(N=Nc3ccccc3)c2C)c1`
> 100 µM

* * *

Test system: A498 renal
Test: NCI tumour cell line growth inhibition, 48 h
TGI listing for selected molecules.

Some solved entries appear below for comparison.
CC1OC(OC2C(O[C@H]3CC[C@@H]4C(=CC[C@@H]5[C@@]4(C)C(=O)C[C@]4(C)[C@@H]([C@H](C)CC[C@@H](O)C(C)(C)O)CC[C@@]54C)C3(C)C)OC(CO)C(O)C2O)C(O)C(O)C1O (some centres undefined) : > 100 µM
CSc1ccccc1C#C/C=C\C#Cc1ccccc1N1CCCC1=O : > 50 µM
Nc1cc2nc3ccccc3sc-2cc1=O : 8.71 µM
CCOc1ccccc1-n1c(CN2CCN(C(=O)COc3ccc(CNCCCCCCN4C5CCCC4CC(OC(=O)Nc4cc(C)ccc4OC)C5)cc3)CC2)nc2ccccc2c1=O (centres undefined) : 4.64 µM
COc1ccc2c(c1)C1(C=N2)CCN(C(C)=O)CC1 : > 100 µM

Form: Entry = NS(=O)(=O)c1ccccc1C(=O)N/N=C(\c1nc2ccc([N+](=O)[O-])cc2[nH]c1=O)C(O)c1ccc([N+](=O)[O-])cc1 (centres undefined) | System = A498 renal | TGI = ____
> 100 µM

Form: Entry = `CN(Cc1cnc2nc(N)nc(N)c2n1)c1ccc(C(=O)NCCS(=O)(=O)O)cc1` | System = A498 renal | TGI = ____
> 100 µM

Form: Entry = CSC1=C(C#N)C(=S)N=C(N)C1C(=O)Nc1ccc(C)cc1 (centres undefined) | System = A498 renal | TGI = ____
> 100 µM

Form: Entry = COC(=O)Nc1nc2ccc(S(=O)c3ccccc3)cc2[nH]1 (centres undefined) | System = A498 renal | TGI = ____
> 100 µM

Form: Entry = `S=c1nc2sc3c(c2c(Nc2ccc(Cl)cc2)[nH]1)CCCC3` | System = A498 renal | TGI = ____
> 100 µM

Form: Entry = COC(=O)[C@@]12C3=NO[C@]1(C(=O)OC)C(O[Si](C)(C)C(C)(C)C)[C@H]1OC(C)(C)O[C@H]1[C@@H]2C(OCc1ccccc1)CC3 (some centres undefined) | System = A498 renal | TGI = ____
> 100 µM

* * *

Test system: COLO 205 colon
Experiment: NCI tumour cell line growth inhibition, 48 h
measured_metric: TGI (µM)
Numbers only here, please. The scale is µM.

Cc1cc2nc(C(Cl)Cl)nc(-c3ccc(Cl)cc3)n2n1 : 2.67

Returns the measured TGI for the input compound. Input: CCOc1ccccc1-n1c(CN2CCN(C(=O)COc3ccc(CNCCCCCCN4C5CCCC4CC(OC(=O)Nc4cc(C)ccc4OC)C5)cc3)CC2)nc2ccccc2c1=O (stereo unspecified)
3.69

Returns the measured TGI for the input compound. Input: `COc1ccc2nc3cc(Cl)ccc3c(Sc3ccccc3[N+](=O)[O-])c2c1`
37.7

Returns the measured TGI for the input compound. Input: `COc1ccc2c(c1)C(=O)/C(=C/c1ccc(OCC(=O)Nc3nccs3)cc1)O2`
5.09

Returns the measured TGI for the input compound. Input: `CN(C)CCCNC1=C(Cl)C(=O)c2ccccc2C1=O`
3.45

Returns the measured TGI for the input compound. Input: `COc1ccc(/C=C\c2cc(OC)c3c(c2)OCO3)c(O)c1O`
45.1

* * *

Test system: RXF 393 renal
Test: NCI tumour cell line growth inhibition, 48 h
measured_metric: TGI (µM)
Numbers only here, please. The scale is µM.

Some solved entries appear below for comparison.
N#CC(C#N)=C1C(=Cc2ccc(OCCCCCCCCCCSSCCCCCCCCCCOc3ccc(C=C4C(=C(C#N)C#N)c5ccccc5C4=C(C#N)C#N)cc3)cc2)C(=C(C#N)C#N)c2ccccc21 : 67.2
O=C1C=Cc2c(Br)sc(Br)c21 : 46

Returns the measured TGI for the input compound. Input: CC1OC(OC2C(OC(=O)[C@]34CCC(C)(C)C[C@H]3C3=CC[C@@H]5[C@@]6(C)CC[C@H](OC7OC(C(=O)O)C(O)C(O)C7O)C(C)(C)[C@@H]6CC[C@@]5(C)[C@]3(C)C[C@H]4O)OCC(O)C2O)C(O)C(O)C1OC1OCC(OC2OCC(O)C(O)C2O)C(O)C1O (stereo partly specified)
29

* * *

Tested on: SW-620 colon
Assay: NCI tumour cell line growth inhibition, 48 h
TGI listing for selected compounds.

CSC(=N/C=C/c1ccccc1)SC : > 100 µM
Cc1ccc(S(=O)(=O)NC(=O)NC(CC(N)=O)C(=O)O)cc1 (stereo unspecified) : > 100 µM
COc1cc2nc(C)nc(N[C@H](C)c3cc(N)cc(C(F)(F)F)c3)c2cc1O[C@H]1CCOC1 : 31.3 µM
O=C(CCl)N1c2ccccc2Oc2ccc3ccccc3c21 : 1.48 µM
COc1cc2c(c(OC)c1O)-c1ccc(SC)c(=O)cc1C(NC(C)=O)CC2 (stereo unspecified) : > 100 µM

Returns the measured TGI for the input compound. Input: `C=Cc1nc2c(Cl)ncnc2n1Cc1ccccc1`
23.2 µM

Returns the measured TGI for the input compound. Input: `CCOC(=O)c1ncn2c1[nH]c(=S)c1ccccc12`
62 µM

Returns the measured TGI for the input compound. Input: `O=C1C=Cc2c(Br)sc(Br)c21`
43.7 µM

Returns the measured TGI for the input compound. Input: `C[N+](C)(CCCn1ccnc1[N+](=O)[O-])CCCn1ccnc1[N+](=O)[O-]`
> 100 µM

Returns the measured TGI for the input compound. Input: `COc1ccc(N2CN3OC(=O)N(c4ccc(OC)cc4)[C@@]3(c3ccccc3)C2)cc1`
> 100 µM

Returns the measured TGI for the input compound. Input: `CNC(=O)c1ccccc1Nc1nc(Nc2ccc(N3CCOCC3)cc2OC)ncc1Cl`
> 100 µM

Returns the measured TGI for the input compound. Input: `COC(=O)[C@@H](C)C[C@H](Cc1ccc(F)cc1)NC(=O)c1csc([C@@H](C[C@H](C(C)C)N(C)C(=O)[C@@H](NC(=O)[C@H]2CCCCN2C)C(C)C)OC(C)=O)n1`
> 16.7 µM

Returns the measured TGI for the input compound. Input: `Nc1cc2nc3ccccc3sc-2cc1=O`
10.4 µM

Returns the measured TGI for the input compound. Input: `COC(=O)NC(Nc1ccccn1)(C(F)(F)F)C(F)(F)F`
> 100 µM

* * *

System: HOP-62 NSCLC
Assay: NCI tumour cell line growth inhibition, 48 h
measured_metric: GI50

Some solved entries appear below for comparison.
NC(CSC(c1ccccc1)(c1ccccc1)c1ccc2c(c1)OCO2)C(=O)O (stereo not drawn) : 1.64 µM
COc1cc(C(=O)/C=C/c2sc(Cl)nc2Cl)cc(OC)c1OC : 2.29 µM
Cc1cnc(NC(=O)C(Cc2ccccc2)NC(=O)c2ccccc2)s1 (stereo not drawn) : 10 µM
Cc1cc2nc(C(Cl)Cl)nc(-c3ccc(Cl)cc3)n2n1 : 0.864 µM
O=C(CCl)N1c2ccccc2Oc2ccc3ccccc3c21 : 1.81 µM

Returns the measured GI50 for the input molecule. Input: `CCOC(=O)Nc1nc2ccc(OCC)cc2s1`
39.4 µM

Returns the measured GI50 for the input molecule. Input: COC(=O)Nc1nc2ccc(S(=O)c3ccccc3)cc2[nH]1 (stereo not drawn)
3.64 µM

Returns the measured GI50 for the input molecule. Input: `Oc1ccc(Cl)cc1-c1cc(-c2ccccc2Cl)[nH]n1`
19.3 µM

Returns the measured GI50 for the input molecule. Input: `CCCCCCCCSC1=CC(=O)c2nc3ccccc3c3ccnc1c23`
> 100 µM

Returns the measured GI50 for the input molecule. Input: CC1=C(C(=O)Nc2ccc(F)c(Cl)c2)C(c2ccc(Cl)cc2)NC(=O)N1 (stereo not drawn)
15.5 µM

Returns the measured GI50 for the input molecule. Input: `Cc1cc(=O)n2[nH]c(-c3ccc(C(C)(C)C)cc3)cc2n1`
17.5 µM

Returns the measured GI50 for the input molecule. Input: `COc1c2ccoc2c(/C=C/C=O)c2oc(-c3ccccc3)cc(=O)c12`
2.49 µM

Returns the measured GI50 for the input molecule. Input: O=c1n(CC2CO2)c(=O)n(CC2CO2)n1CC1CO1 (stereo not drawn)
4.7 µM
